For UniProtKB P08172, measured AC50 is reported for the entries below.
Sequence (P08172 whole entry): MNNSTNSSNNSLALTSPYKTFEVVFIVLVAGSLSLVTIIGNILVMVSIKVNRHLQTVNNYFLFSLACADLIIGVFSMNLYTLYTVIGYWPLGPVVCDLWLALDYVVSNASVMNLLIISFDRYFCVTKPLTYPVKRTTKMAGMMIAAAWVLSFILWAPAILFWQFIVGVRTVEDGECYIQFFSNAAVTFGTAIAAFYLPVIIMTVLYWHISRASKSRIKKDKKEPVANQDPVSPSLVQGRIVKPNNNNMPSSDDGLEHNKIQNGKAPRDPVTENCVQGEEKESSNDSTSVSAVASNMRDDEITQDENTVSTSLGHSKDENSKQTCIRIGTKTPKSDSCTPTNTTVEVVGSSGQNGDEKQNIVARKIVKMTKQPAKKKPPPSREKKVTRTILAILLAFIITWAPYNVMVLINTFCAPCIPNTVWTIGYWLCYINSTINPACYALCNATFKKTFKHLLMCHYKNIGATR

// solved cases for AC50 follow
{"Compound": "COc1cc(Nc2c(C#N)cnc3cc(OCCCN4CCN(C)CC4)c(OC)cc23)c(Cl)cc1Cl", "AC50": "4.94 µM"}
{"Compound": "C[C@@H]1C[C@H]2[C@@H]3C[C@H](F)C4=CC(=O)C=C[C@]4(C)[C@@]3(F)[C@@H](O)C[C@]2(C)[C@@]1(O)C(=O)COC(=O)C(C)(C)C [FLUMETHASONE PIVALATE]", "AC50": "> 30 µM"}
{"Compound": "O=C1[C@H](CC[C@H](O)c2ccc(F)cc2)[C@@H](c2ccc(O)cc2)N1c1ccc(F)cc1", "AC50": "> 30 µM"}

Short answer on UniProtKB P08172 for COc1cc2c(cc1OC)[C@H]1C[C@@H](OC(=O)[C@@H](N)C(C)C)[C@H](CC(C)C)CN1CC2 , AC50: > 30 µM

Record Cc1cc(O)cc(C)c1Cl ; system UniProtKB P08172; AC50 = > 30 µM

Result for O=C(c1ccc(F)c(F)c1Nc1ccc(I)cc1F)N1CC(O)([C@@H]2CCCCN2)C1 , tested on UniProtKB P08172, AC50: 13.8 µM

Assay UniProtKB P08172, sample O=C(O)CCCN1CCC(O[C@@H](c2ccc(Cl)cc2)c2ccccn2)CC1 , AC50 read: > 30 µM

The compound C[N+](C)(C)CCCCCCCCCC[N+](C)(C)C , tested on UniProtKB P08172, showed AC50 of > 30 µM
